src = patent US10590079B2

Values of IC50 reported for full-length LSD1 (Homo sapiens) appear below.
metric: IC50 (nM)

Cc1cc2c(cc1C#N)c(-c1cccc(N)c1C)cn2C1CCNCC1 : 14

1. Cc1cc2c(cc1C#N)c(-c1cncc(N)c1C)cn2[C@H]1CC[C@H](O)CC1
2. COc1ccc(-n2cc(-c3cccc(N)c3C)c3cc(C#N)c(C)cc32)cc1
Pick one: 1 or 2 . Which one has the lower reported IC50? Refer to your chosen entry by its label in the reply. 2
